Where do these numbers come from? They come from ChEMBL document CHEMBL1133902.

For each of the molecules below, state its inhibition at 12.5 µg/mL.
# Tested on: Mycobacterium tuberculosis
# experiment.summary: Antituberculosis activity against Mycobacterium tuberculosis at a concentration of 12.5 ug/mL
# Format: functional
Give bare numbers, in %.

Answered cases to consult:
[
  {
    "molecule": "CC(=O)OC[C@H]1O[C@@](O)(Oc2cc(OC(C)=O)c3c(c2C2C(=O)c4c(OC(C)=O)cc(OC(C)=O)cc4OC2c2ccc(OC(C)=O)cc2)OC(c2ccc(OC(C)=O)cc2)CC3=O)[C@H](O)C(O)[C@@H]1O (single isomer, unassigned)",
    "inhibition at 12.5 µg/mL / %": 0
  },
  {
    "molecule": "COc1ccc(-c2oc3cc(OC)cc(OC)c3c(=O)c2-c2c(-c3ccc(OC)cc3)oc3cc(OC)cc(OC)c3c2=O)cc1",
    "inhibition at 12.5 µg/mL / %": 0
  },
  {
    "molecule": "COc1ccc(-c2cc(=O)c3c(OC)c(-c4c(OC)cc5oc(-c6ccc(OC)cc6)cc(=O)c5c4OC)c(OC)cc3o2)cc1",
    "inhibition at 12.5 µg/mL / %": 96
  },
  {
    "molecule": "O=C1CC(c2ccc(O)cc2)Oc2cc(O)c(-c3c(O)cc(O)c4c3OC(c3ccc(O)cc3)CC4=O)c(O)c21 (centres undefined)",
    "inhibition at 12.5 µg/mL / %": 0
  },
  {
    "molecule": "O=C1CC(c2ccc(O)cc2)Oc2cc(O)c(-c3c(O)cc4c(c3O)C(=O)CC(c3ccc(O)cc3)O4)c(O)c21 (centres undefined)",
    "inhibition at 12.5 µg/mL / %": 0
  }
]

# per-item lookup of inhibition at 12.5 µg/mL; items listed below
1. COc1ccc(-c2cc(=O)c3c(OC)c(-c4cc(OC)ccc4-c4cc(=O)c5c(OC)cc(OC)cc5o4)c(OC)cc3o2)cc1
2. O=C1CC(c2ccc(O)cc2)Oc2c1c(O)cc(O[C@]1(O)O[C@H](CO)[C@@H](O)C(O)[C@H]1O)c2C1C(=O)c2c(O)cc(O)cc2OC1c1ccc(O)cc1 (single isomer, unassigned)

[1, 0]

---

# Tested on: Mycobacterium tuberculosis
# experiment.summary: Antituberculosis activity against Mycobacterium tuberculosis at a concentration of 12.5 ug/mL
# Type: functional
For each of the compounds below, state its inhibition at 12.5 µg/mL.
Give bare numbers, in %.

Answered cases to consult:
[
  {
    "compound": "CC(=O)Oc1ccc(C2Oc3cc(OC(C)=O)cc(OC(C)=O)c3C(=O)C2c2c(OC(C)=O)cc(OC(C)=O)c3c2OC(c2ccc(OC(C)=O)c(OC(C)=O)c2)CC3=O)cc1 (configuration not stated)",
    "target.under.test": "Mycobacterium tuberculosis",
    "inhibition at 12.5 µg/mL, %": 0
  },
  {
    "compound": "O=c1cc(-c2ccccc2-c2cccc3c(=O)cc(-c4ccccc4)oc23)oc2ccccc12",
    "target.under.test": "Mycobacterium tuberculosis",
    "inhibition at 12.5 µg/mL, %": 0
  },
  {
    "compound": "O=C1CC(c2ccc(O)c(O)c2)Oc2c1c(O)cc(O[C@]1(O)O[C@H](CO)[C@@H](O)C(O)[C@H]1O)c2C1C(=O)c2c(O)cc(O)cc2OC1c1ccc(O)cc1 (single isomer, unassigned)",
    "target.under.test": "Mycobacterium tuberculosis",
    "inhibition at 12.5 µg/mL, %": 0
  },
  {
    "compound": "COc1ccc(C2CC(=O)c3c(OC)cc(OC)c(C4C(=O)c5c(OC)cc(OC)cc5OC4c4ccc(OC)cc4)c3O2)cc1 (configuration not stated)",
    "target.under.test": "Mycobacterium tuberculosis",
    "inhibition at 12.5 µg/mL, %": 87
  },
  {
    "compound": "O=c1cc(-c2ccc(O)c(-c3c(O)cc(O)c4c(=O)cc(-c5ccc(O)cc5)oc34)c2)oc2cc(O)cc(O)c12",
    "target.under.test": "Mycobacterium tuberculosis",
    "inhibition at 12.5 µg/mL, %": 0
  },
  {
    "compound": "O=c1cc(-c2ccc(Oc3c(-c4cccc([N+](=O)[O-])c4)oc4ccccc4c3=O)cc2)oc2ccccc12",
    "target.under.test": "Mycobacterium tuberculosis",
    "inhibition at 12.5 µg/mL, %": 61
  }
]

# per-item lookup of inhibition at 12.5 µg/mL; items listed below
1. COc1ccc(-c2cc(=O)c3c(OC)cc(OC)c(C4C(=O)c5c(OC)cc(OC)cc5OC4c4ccc(OC)cc4)c3o2)cc1 (configuration not stated)
2. O=c1cc(-c2ccc(Oc3c(O)cc4oc(-c5ccc(O)cc5)cc(=O)c4c3O)cc2)oc2cc(O)cc(O)c12
3. O=C1CC(c2ccc(O)c(O)c2)Oc2c1c(O)cc(O)c2C1C(=O)c2c(O)cc(O)cc2OC1c1ccc(O)cc1 (configuration not stated)
4. O=c1cc(-c2cccc(-c3cccc4c(=O)cc(-c5ccccc5)oc34)c2)oc2ccccc12

[95, 0, 0, 49]

# per-item lookup of inhibition at 12.5 µg/mL; items listed below
1. CC(=O)Oc1ccc(C2CC(=O)c3c(cc(OC(C)=O)c(-c4c(OC(C)=O)cc5c(c4OC(C)=O)C(=O)CC(c4ccc(OC(C)=O)cc4)O5)c3OC(C)=O)O2)cc1 (configuration not stated)
2. O=C1c2c(O)cc(O)cc2OC(c2ccc(O)cc2)C1c1c(O)cc(O)c2c(=O)cc(-c3ccc(O)c(O)c3)oc12 (configuration not stated)

1: 0; 2: 0
